The values you see were collected from patent US20240246918A1.

- Tested on: COLO 205 colorectal tumor cells
- PROCEDURE_TEXT: Tumor cell viability inhibition assay (CellTiter-Glo 2.0, 72 hours)
- Format: cell-based
- CONDITION_SET: Homo sapiens, COLO 205, 72 h, COLO 205 cell viability
IC50 by entry:

# example entries with known answers
COMPOUND	TGT	MEASURED_RESULT
Cc1cc(-c2cc(Cl)ccc2OCCn2c(C)nc3c(c2=O)C[C@H](N2CCC[C@@H](C(F)F)C2)CC3)c2scc(C(=O)O)c2n1 (single isomer, unassigned)	COLO 205 colorectal tumor cells	< 5 µM
Cc1cc(-c2cc(Cl)ccc2OCCn2c(C)nc3c(c2=O)CC(N(C)C2CC2)CC3)c2scc(C(=O)NS(C)(=O)=O)c2n1 (stereo not shown) [Compound 51]	COLO 205 colorectal tumor cells	< 5 µM
Cc1cc(-c2cc(Cl)ccc2OCCn2c(C)nc3c(c2=O)CC(N2CCc4ncncc4C2)CC3)c2scc(C(=O)O)c2n1 (stereo not shown)	COLO 205 colorectal tumor cells	5 to 20 µM
COC1CCN(C2(C)CCc3nc(C)n(CCOc4ccc(Cl)cc4-c4cc(C)nc5c(C(=O)O)csc45)c(=O)c3C2)CC1 (stereo not shown)	COLO 205 colorectal tumor cells	< 5 µM
Cc1cc(-c2cc(Cl)ccc2OCCn2c(C)nc3c(c2=O)C[C@](C)(N2CCC[C@@]4(C2)CC4(F)F)CC3)c2scc(C(=O)O)c2n1 (single isomer, unassigned)	COLO 205 colorectal tumor cells	5 to 20 µM

INPUT: Item Cc1cc(-c2cc(Cl)ccc2OCCn2c(C)nc3c(c2=O)C[C@@H](N2CCCC[C@@H]2c2cccc(F)c2)CC3)c2scc(C(=O)O)c2n1 (single isomer, unassigned) has what recorded IC50?
OUTPUT: > 20 µM

INPUT: Item Cc1cc(-c2cc(Cl)ccc2OCCn2c(C)nc3c(c2=O)C[C@H](N2[C@@H]4CC[C@H]2C[C@@H](OC(F)(F)F)C4)CC3)c2scc(C(=O)O)c2n1 (single isomer, unassigned) has what recorded IC50?
OUTPUT: > 20 µM

INPUT: Item Cc1cc(-c2cc(Cl)ccc2OCCn2c(C)nc3c(c2=O)CC(N(C)C2CC2)CC3)c2scc(C(=O)NS(C)(=O)=O)c2n1 (single isomer, unassigned) [Compound 302] has what recorded IC50?
OUTPUT: < 5 µM

INPUT: Item Cc1cc(-c2cc(Cl)ccc2OCCn2c(C)nc3c(c2=O)CC(N2CC(N4CCOCC4)C2)CC3)c2scc(C(=O)O)c2n1 (stereo not shown) has what recorded IC50?
OUTPUT: 5 to 20 µM

====

- Tested on: COLO 205 colorectal tumor cells
- PROCEDURE_TEXT: Tumor cell viability inhibition assay (CellTiter-Glo 2.0, 72 hours)
- Format: cell-based
- CONDITION_SET: Homo sapiens, COLO 205, 72 h, COLO 205 cell viability
pIC50: −log10 of the molar value.
PROPERTY_MEASURED: pIC50

COMPOUND	MEASURED_RESULT
Cc1cc(-c2cc(Cl)ccc2OCCn2c(C)nc3c(c2=O)CC(N2CC4(CCN(C)C4)C2)CC3)c2scc(C(=O)O)c2n1 (stereo not shown)	< 4.70

INPUT: Item Cc1cc(-c2cc(Cl)ccc2OCCn2c(C)nc3c(c2=O)C[C@@H](N2CCC[C@@]4(C2)CC4(F)F)CC3(C)C)c2scc(C(=O)O)c2n1 (single isomer, unassigned) has what recorded pIC50?
OUTPUT: 4.70 to 5.30

INPUT: Item Cc1cc(-c2cc(Cl)ccc2OCCn2c(C)nc3c(c2=O)C[C@@H](N2CCO[C@@H](CC(F)(F)F)C2)CC3)c2scc(C(=O)O)c2n1 (single isomer, unassigned) has what recorded pIC50?
OUTPUT: > 5.30

INPUT: Item Cc1cc(-c2cc(Cl)ccc2OCCn2c(C)nc3c(c2=O)C[C@@H](N2CCC(c4ccn(C)n4)CC2)CC3)c2scc(C(=O)O)c2n1 (single isomer, unassigned) has what recorded pIC50?
OUTPUT: > 5.30

INPUT: Item Cc1cc(-c2cc(Cl)ccc2OCCn2c(C)nc3c(c2=O)CC(N(C)S(C)(=O)=O)CC3)c2scc(C(=O)O)c2n1 (stereo not shown) has what recorded pIC50?
OUTPUT: 4.70 to 5.30

INPUT: Item CO[C@@H]1CCN([C@H]2CCc3nc(C)n(CCOc4ccc(Cl)cc4-c4cc(C)nc5c(C(=O)O)csc45)c(=O)c3C2)CC12CC2 (single isomer, unassigned) has what recorded pIC50?
OUTPUT: 4.70 to 5.30

INPUT: Item Cc1cc(-c2cc(Cl)ccc2OCCn2c(C)nc3c(c2=O)CC(OC2CCN(C)CC2)CC3)c2scc(C(=O)O)c2n1 (stereo not shown) has what recorded pIC50?
OUTPUT: < 4.70

INPUT: Item Cc1nc2c(c(=O)n1CC#Cc1ccc(Cl)cc1-c1ccnc3c(C(=O)O)csc13)C[C@@H](N1CCC[C@]3(C1)CC3(F)F)CC2 (single isomer, unassigned) has what recorded pIC50?
OUTPUT: 4.70 to 5.30

INPUT: Item Cc1cc(-c2cc(Cl)ccc2OCCn2c(C)nc3c(c2=O)CC(N2CC(F)(F)C2)CC3)c2scc(C(=O)O)c2n1 (stereo not shown) has what recorded pIC50?
OUTPUT: 4.70 to 5.30

====

- Tested on: COLO 205 colorectal tumor cells
- PROCEDURE_TEXT: Tumor cell viability inhibition assay (CellTiter-Glo 2.0, 72 hours)
- Type: cell-based
- CONDITION_SET: Homo sapiens, COLO 205, 72 h, COLO 205 cell viability
pIC50: −log10 of the molar value.
PROPERTY_MEASURED: pIC50

# example entries with known answers
COMPOUND	MEASURED_RESULT
COC1CCN(C2(C)CCc3nc(C)n(CCOc4ccc(Cl)cc4-c4cc(C)nc5c(C(=O)O)csc45)c(=O)c3C2)CC1(C)C (single isomer, unassigned)	4.70 to 5.30
Cc1cc(-c2cc(Cl)ccc2OCCn2c(C)nc3c(c2=O)CC(N(C)Cc2ccnnc2)CC3)c2scc(C(=O)O)c2n1 (centres unmarked)	< 4.70
[2H]C1(N2CCC(OC(F)(F)F)CC2)CCc2nc(C)n(CCOc3ccc(Cl)cc3-c3cc(C)nc4c(C(=O)O)csc34)c(=O)c2C1 (single isomer, unassigned)	> 5.30
Cc1cc(-c2cc(Cl)ccc2OCCn2c(C)nc3c(c2=O)C[C@@H](N2CCC[C@@H](OC(F)(F)F)C2)CC3)c2scc(C(=O)O)c2n1 (single isomer, unassigned)	> 5.30

Now look at this one.
INPUT: Item Cc1cc(-c2cc(Cl)ccc2OCCn2c(C)nc3c(c2=O)C[C@@H](N2CCC[C@]4(C2)CC4(F)F)CC32CC2)c2scc(C(=O)O)c2n1 (single isomer, unassigned) has what recorded pIC50?
OUTPUT: > 5.30

====

- Tested on: COLO 205 colorectal tumor cells
- PROCEDURE_TEXT: Tumor cell viability inhibition assay (CellTiter-Glo 2.0, 72 hours)
- Assay type: cell-based
- CONDITION_SET: COLO 205 cell viability
PROPERTY_MEASURED: IC50

INPUT: Item Cc1cc(-c2cc(Cl)ccc2OCCn2c(C)nc3c(c2=O)CC(N2CCC(OC(F)(F)F)CC2)CC3(C)C)c2scc(C(=O)O)c2n1 (single isomer, unassigned) has what recorded IC50?
OUTPUT: < 5 µM

INPUT: Item Cc1cc(-c2cc(Cl)ccc2OCCn2c(C)nc3c(c2=O)CC(N2CC4CC(C2)C4(F)F)CC3)c2scc(C(=O)O)c2n1 (single isomer, unassigned) has what recorded IC50?
OUTPUT: < 5 µM

INPUT: Item Cc1cc(-c2cc(Cl)ccc2OCCn2c(C)nc3c(c2=O)CC(N(C)C2CCCC2(F)F)CC3)c2scc(C(=O)O)c2n1 (single isomer, unassigned) has what recorded IC50?
OUTPUT: 5 to 20 µM

INPUT: Item Cc1cc(-c2cc(Cl)ccc2OCCn2c(C)nc3c(c2=O)CC(N2CC(F)(F)C2)CC3)c2sccc2n1 (single isomer, unassigned) has what recorded IC50?
OUTPUT: > 20 µM

INPUT: Item Cc1cc(-c2cc(Cl)ccc2OCCn2c(C)nc3c(c2=O)CC(N2CCC(OC(F)(F)F)CC2)CC3)c2scc(C(=O)NS(C)(=O)=O)c2n1 (single isomer, unassigned) has what recorded IC50?
OUTPUT: < 5 µM

INPUT: Item Cc1cc(-c2cc(Cl)ccc2OCCn2c(C)nc3c(c2=O)CC(C)(N2CCC(OC(F)(F)F)CC2)CC3)c2scc(C(=O)O)c2n1 (single isomer, unassigned) has what recorded IC50?
OUTPUT: < 5 µM

====

- Test system: COLO 205 colorectal tumor cells
- PROCEDURE_TEXT: Tumor cell viability inhibition assay (CellTiter-Glo 2.0, 72 hours)
- Type: cell-based
- CONDITION_SET: Homo sapiens, COLO 205, 72 h, COLO 205 cell viability
PROPERTY_MEASURED: IC50

COMPOUND	MEASURED_RESULT
Cc1cc(-c2cc(Cl)ccc2OCCn2c(C)nc3c(c2=O)C[C@H](N2Cc4cc(F)c(F)cc4C2)CC3)c2scc(C(=O)O)c2n1 (single isomer, unassigned)	< 5 µM
Cc1cc(-c2cc(Cl)ccc2OCCn2c(C)nc3c(c2=O)C[C@@H](N2Cc4cc(F)c(F)cc4C2)CC3)c2scc(C(=O)O)c2n1 (single isomer, unassigned)	< 5 µM
Cc1cc(-c2cc(Cl)ccc2OCCn2c(C)nc3c(c2=O)CC(N2CCC4(CC2)CC(O)(C(F)(F)F)C4)CC3)c2scc(C(=O)O)c2n1 (stereo not shown)	5 to 20 µM
Cc1cc(-c2cc(Cl)ccc2OCCn2c(C)nc3c(c2=O)CC(N2CC4(CCC(F)(F)CC4)C2)CC3)c2scc(C(=O)O)c2n1 (stereo not shown)	< 5 µM
Cc1cc(-c2cc(Cl)ccc2OCCn2c(C)nc3c(c2=O)C[C@@H](N2CCC(COC(F)(F)F)CC2)CC32CC2)c2scc(C(=O)O)c2n1 (single isomer, unassigned)	< 5 µM

INPUT: Item CCS(=O)(=O)C1CCN(C2CCc3nc(C)n(CCOc4ccc(Cl)cc4-c4cc(C)nc5c(C(=O)O)csc45)c(=O)c3C2)CC1 (stereo not shown) has what recorded IC50?
OUTPUT: 5 to 20 µM

INPUT: Item Cc1cc(-c2cc(Cl)ccc2OCCn2c(C)nc3c(c2=O)CC(N2CC4(CCCNC4)C2)CC3)c2scc(C(=O)O)c2n1 (single isomer, unassigned) has what recorded IC50?
OUTPUT: > 20 µM

INPUT: Item Cc1cc(-c2cc(Cl)ccc2OCCn2c(C)nc3c(c2=O)C[C@@H](N2CCC[C@H](C(F)F)C2)CC32CC2)c2scc(C(=O)O)c2n1 (single isomer, unassigned) has what recorded IC50?
OUTPUT: < 5 µM

INPUT: Item Cc1csc([C@@H]2CCCN([C@H]3CCc4nc(C)n(CCOc5ccc(Cl)cc5-c5cc(C)nc6c(C(=O)O)csc56)c(=O)c4C3)C2)n1 (single isomer, unassigned) has what recorded IC50?
OUTPUT: < 5 µM

INPUT: Item Cc1cc(-c2cc(Cl)ccc2OCCn2c(C)nc3c(c2=O)C[C@H](N2CCC[C@H](c4ncccc4F)C2)CC3)c2scc(C(=O)O)c2n1 (single isomer, unassigned) has what recorded IC50?
OUTPUT: < 5 µM
